Below, each of the molecules is paired with its reported IC50 value.
# Assay procedure: Inhibitory activity against TNF-alpha production in human peripheral blood mononuclear cells(PBMC) using an ELISA assay
# Assay type: functional

Reference set (3 entries):
Molecule | IC50
COC(=O)C1=Cc2ccc(OC)cc2OC1c1cc(OC)c(OC)c(OC)c1 (centres undefined) | 2 µM
CCNC(=O)C1=Cc2ccc(OC)cc2OC1c1cc(OC)c(OC)c(OC)c1 (centres undefined) | 17.9 µM
COc1ccc2c(c1)OC(c1cc(OC)c(OC)c(OC)c1)C(C(=O)O)=C2 (centres undefined) | > 50 µM

Challenge: Request the reported IC50 associated with COc1ccc2c(c1)OC(c1cc(OC)c(OC)c(OC)c1)C(C(C)=O)=C2 (centres undefined)
Response given: 0.1 µM
